- Test Method Notes: Cmax in rat at 400 mg/kg bid
- Type: ADME, organism-based
- Set-up: dose 400 mg/kg
- Assay Conditions: in vivo
Parameter Measured: Cmax (µM)
# unit: µM | format: bare number

Provide Cmax value for the following compound: `COc1cc(N2CC[C@@H](Oc3ccc(N4N=C(C(F)(F)F)[C@@H](C)[C@@H]4CC(=O)O)cc3)[C@H](C)C2)c(Cl)cn1`
271

###

Each entry below lists one item and its recorded logD value.
- Test Method Notes: Lipophilicity, logD of compound
- Type: physicochemical
- Assay Conditions: octanol/water
Enter the number alone.

COCCCO[C@H]1CN(c2ccc(O[C@@H]3CCN(c4cc(OC)ncc4Cl)C[C@H]3C)cc2)[C@@H](CC(=O)O)[C@@H]1C 1.32

Tell us which logD value is on record for `CCOc1ccc(F)c(N2CC[C@@H](Oc3ccc(N4C[C@H](OCCCOC)C[C@@H]4CC(=O)O)cc3)[C@H](C)C2)c1`
1.3

Specify reported logD for the compound shown: `CCOc1ccc(F)c(N2CCC(Oc3ccc(N4C[C@H](Oc5ccccc5)C[C@@H]4CC(=O)O)cc3)CC2)c1`
2.44

Identify measured logD associated with `CCOc1ccc(F)c(N2CCC(Oc3ccc(N4C[C@H](OCCCOC)C[C@@H]4CC(=O)O)cc3)CC2)c1`
0.81

Provide only the value of recorded logD for `CCOc1ccc(F)c(N2CCC(Oc3ccc(N4C[C@H](Oc5cccc(OC)c5)C[C@@H]4CC(=O)O)cc3)CC2)c1`
2.15

Give recorded logD. `CCOc1ccc(F)c(N2CC[C@@H](Oc3ccc(N4C[C@H](OCCCOC)[C@@H](C)[C@@H]4CC(=O)O)cc3)[C@H](C)C2)c1`
1.82

###

- Test Method Notes: Cmax in rat at 1 mg/kg, po
- Type: ADME, organism-based
- Design: dose 1 mg/kg, route po
- Assay Conditions: in vivo
Parameter Measured: Cmax (nM)
Supply the numeric figure in nM, leaving out any unit text.

Determine its reported Cmax: `COCCCO[C@H]1CN(c2ccc(O[C@@H]3CCN(c4cc(OC)ncc4Cl)C[C@H]3C)cc2)[C@@H](CC(=O)O)[C@@H]1C`
1600

###

- Test Method Notes: Cmax in mouse at 1 mg/kg, po
- Type: ADME, organism-based
- Design: dose 1 mg/kg, route po
- Assay Conditions: in vivo
Parameter Measured: Cmax (nM)
Just the number please, in nM, no unit attached.

Answer with reported Cmax of `COCCCO[C@H]1CN(c2ccc(O[C@@H]3CCN(c4cc(OC)ncc4Cl)C[C@H]3C)cc2)[C@@H](CC(=O)O)[C@@H]1C`
2800

###

The following compounds have recorded IC50 on Cytochrome P450 2C9 (Homo sapiens).
Sequence (P11712 whole entry): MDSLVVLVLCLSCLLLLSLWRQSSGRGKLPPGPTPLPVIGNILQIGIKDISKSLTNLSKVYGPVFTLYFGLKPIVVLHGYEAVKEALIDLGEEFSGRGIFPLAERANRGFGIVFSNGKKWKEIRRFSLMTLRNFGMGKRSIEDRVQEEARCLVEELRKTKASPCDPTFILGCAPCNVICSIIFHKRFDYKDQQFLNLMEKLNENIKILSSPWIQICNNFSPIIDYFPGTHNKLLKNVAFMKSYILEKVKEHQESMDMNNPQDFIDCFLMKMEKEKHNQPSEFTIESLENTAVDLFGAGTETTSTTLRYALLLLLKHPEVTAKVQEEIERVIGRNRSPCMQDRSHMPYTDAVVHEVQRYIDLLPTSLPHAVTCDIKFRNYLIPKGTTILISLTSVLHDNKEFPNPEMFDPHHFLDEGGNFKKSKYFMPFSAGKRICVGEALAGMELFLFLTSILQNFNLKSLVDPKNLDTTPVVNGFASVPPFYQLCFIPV
Lab book: enter the figure in µM, no units written.

COCCCO[C@H]1CN(c2ccc(O[C@@H]3CCN(c4cc(OC)ncc4Cl)C[C@H]3C)cc2)[C@@H](CC(=O)O)[C@@H]1C 34

Please turn your attention to the following entry.
State its IC50 for this compound: `COc1cc(N2CC[C@@H](Oc3ccc(N4N=C(C(F)(F)F)[C@@H](C)[C@@H]4CC(=O)O)cc3)[C@H](C)C2)c(Cl)cn1`
14

###

- Test Method Notes: AUC (0 to 24 hrs) in rat at 300 mg/kg qd
- Assay type: ADME, organism-based
- Design: dose 300 mg/kg
- Assay Conditions: in vivo
Parameter Measured: AUC
The answer should read as a number with its unit following.

Give reported AUC value for `COCCCO[C@H]1CN(c2ccc(O[C@@H]3CCN(c4cc(OC)ncc4Cl)C[C@H]3C)cc2)[C@@H](CC(=O)O)[C@@H]1C`
3150 µM·h

###

- Test Method Notes: Total AUC in rat at 1 mg/kg, po
- Assay type: ADME, organism-based
- Design: dose 1 mg/kg, route po
- Assay Conditions: in vivo
Parameter Measured: AUC (µM·h)
Write the number in µM·h without appending the unit.

Quick one: give measured AUC for `COCCCO[C@H]1CN(c2ccc(O[C@@H]3CCN(c4cc(OC)ncc4Cl)C[C@H]3C)cc2)[C@@H](CC(=O)O)[C@@H]1C`
2.2

###

Papp A→B values for the compounds below.
- Test Method Notes: Permeability of compound across apical to basolateral side in dog MDCK cells
- Format: ADME, cell-based, Canis lupus familiaris
- Assay Conditions: read-out: permeability

Below, each entry is followed by its recorded Papp A→B result.
COc1cc(N2CC[C@@H](Oc3ccc(N4N=C(C(F)(F)F)[C@@H](C)[C@@H]4CC(=O)O)cc3)[C@H](C)C2)c(Cl)cn1 14.2 ×10⁻⁶ cm/s
COCCCO[C@H]1CN(c2ccc(O[C@@H]3CCN(c4cc(OC)ncc4Cl)C[C@H]3C)cc2)[C@@H](CC(=O)O)[C@@H]1C 24.3 ×10⁻⁶ cm/s

Kindly review the next compound as well.
Identify the reported Papp A→B for the following entry. `COc1ccc(F)c(-c2ccc(Cc3ccc(N4N=C(C(F)(F)F)[C@@H](C)[C@@H]4CC(=O)O)cc3)c(C)c2)c1`
5.7 ×10⁻⁶ cm/s

###

- Target Under Test: Cytochrome P450 2C8 (Homo sapiens)
- Sequence (P10632 whole entry): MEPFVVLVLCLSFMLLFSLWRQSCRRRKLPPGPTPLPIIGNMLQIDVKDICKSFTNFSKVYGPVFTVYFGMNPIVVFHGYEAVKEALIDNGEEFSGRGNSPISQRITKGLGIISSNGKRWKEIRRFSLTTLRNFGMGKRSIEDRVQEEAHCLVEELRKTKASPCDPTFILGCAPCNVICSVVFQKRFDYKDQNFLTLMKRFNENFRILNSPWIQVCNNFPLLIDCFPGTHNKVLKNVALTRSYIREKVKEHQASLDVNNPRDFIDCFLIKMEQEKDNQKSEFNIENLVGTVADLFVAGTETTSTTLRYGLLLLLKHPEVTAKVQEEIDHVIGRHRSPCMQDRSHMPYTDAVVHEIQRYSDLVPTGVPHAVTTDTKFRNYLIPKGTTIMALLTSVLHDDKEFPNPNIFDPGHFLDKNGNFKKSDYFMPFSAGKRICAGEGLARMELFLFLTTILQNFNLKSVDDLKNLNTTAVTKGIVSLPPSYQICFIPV
Parameter Measured: pIC50
Interpret pIC50 as the negative base-10 log of the concentration measured in mol/L.

Tell me measured pIC50 for `COc1cc(N2CC[C@@H](Oc3ccc(N4N=C(C(F)(F)F)[C@@H](C)[C@@H]4CC(=O)O)cc3)[C@H](C)C2)c(Cl)cn1` please.
5.77

###

- Test Method Notes: Tmax in rat at 80 mg/kg qd
- Format: ADME, organism-based
- Assay Conditions: in vivo
Parameter Measured: Tmax (h)
Write the answer as a number in h, unit excluded.

Give the measured Tmax for `COc1ccc(F)c(-c2ccc(Cc3ccc(N4N=C(C(F)(F)F)[C@@H](C)[C@@H]4CC(=O)O)cc3)c(C)c2)c1`
4

###

- Target Under Test: Peroxisome proliferator-activated receptor gamma (Homo sapiens)
- Sequence (P37231 whole entry): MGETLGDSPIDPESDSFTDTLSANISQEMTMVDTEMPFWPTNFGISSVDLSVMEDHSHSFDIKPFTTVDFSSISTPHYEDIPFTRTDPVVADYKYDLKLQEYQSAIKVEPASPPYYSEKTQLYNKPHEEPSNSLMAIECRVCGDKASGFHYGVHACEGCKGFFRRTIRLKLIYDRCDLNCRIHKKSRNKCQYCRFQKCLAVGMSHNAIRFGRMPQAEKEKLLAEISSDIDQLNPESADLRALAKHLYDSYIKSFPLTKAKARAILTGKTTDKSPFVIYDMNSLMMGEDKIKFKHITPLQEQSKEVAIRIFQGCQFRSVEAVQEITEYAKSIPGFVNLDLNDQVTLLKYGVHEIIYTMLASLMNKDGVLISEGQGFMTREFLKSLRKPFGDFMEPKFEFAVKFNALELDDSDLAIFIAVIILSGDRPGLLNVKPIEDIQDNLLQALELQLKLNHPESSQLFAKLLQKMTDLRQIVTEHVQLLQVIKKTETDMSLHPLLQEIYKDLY
- Test Method Notes: Transactivation of PPARgamma (unknown origin)
Parameter Measured: EC50

A selection of reference data follows.
COc1cc(N2CC[C@@H](Oc3ccc(N4C[C@H](C(F)(F)F)[C@@H](C)[C@@H]4CC(=O)O)cc3)[C@H](C)C2)c(Cl)cn1 > 48 µM
CCOc1ccc(F)c(N2CC[C@@H](Oc3ccc(N4CC(C)(C)C[C@@H]4CC(=O)O)cc3)[C@H](C)C2)c1 > 48 µM
CCOc1ccc(F)c(N2CC[C@@H](Oc3ccc(N4C[C@H](c5ccccc5)C[C@@H]4CC(=O)O)cc3)[C@H](C)C2)c1 > 48 µM

Moving on to another molecule below.
Return reported EC50. Input molecule: `CCOc1ccc(F)c(N2CCC(Oc3ccc(N4C[C@H](OCCCOC)C[C@@H]4CC(=O)O)cc3)CC2)c1`
> 47 µM

Values from ChEMBL document CHEMBL5257080
